assay: total protein half-life in vivo (active degradation + dilution); higher = more stable protein; settings: wild type E. coli NCM3722; growth: C-lim chemostat; doubling time 6 h
parameterMeasured: total protein half-life in vivo (h)
I only need the number, in h, no unit after it.

// worked examples, total protein half-life in vivo included
{"monomerSequence": "MAINFSPKVGEILECNFGNYPVSQNGPFSTTYYDGRIPPEMIKNRLVVVLNGKINGNACIVVPLSTTRDQDKLKRGMHVEIASNVINDLQFFDQQIRWAKADLVQQVSRNRLNRARTYRGYLNQCLPHELVADIQRAVIKSINAISLIN", "total protein half-life in vivo (h)": 6.12}
{"monomerSequence": "MDSFPAIEIDKVKAWDFRLANINTSECLNVAYGVDANYLDGVGVSITSIVLNNRHINLDFYIIADVYNDGFFQKIAKLAEQNQLRITLYRINTDKLQCLPCTQVWSRAMYFRLFAFQLLGLTLDRLLYLDADVVCKGDISQLLHLGLNGAVAAVVKDVEPMQEKAVSRLSDPELLGQYFNSGVVYLDLKKWADAKLTEKALSILMSKDNVYKYPDQDVMNVLLKGMTLFLPREYNTIYTIKSELKDKTHQNYKKLITESTLLIHYTGATKPWHKWAIYPSVKYYKIALENSPWKDDSPRDAKSIIEFKKRYKHLLVQHHYISGIIAGVCYLCRKYYRK", "total protein half-life in vivo (h)": 5.19}
{"monomerSequence": "MMQHQVNVSARFNPETLERVLRVVRHRGFHVCSMNMAAASDAQNINIELTVASPRSVDLLFSQLNKLVDVAHVAICQSTTTSQQIRA [P0ADG1]", "total protein half-life in vivo (h)": 0.318}
{"monomerSequence": "MPWIQLKLNTTGANAEDLSDALMEAGAVSITFQDTHDTPVFEPLPGETRLWGDTDVIGLFDAETDMNDVVAILENHPLLGAGFAHKIEQLEDKDWEREWMDNFHPMRFGERLWICPSWRDVPDENAVNVMLDPGLAFGTGTHPTTSLCLQWLDSLDLTGKTVIDFGCGSGILAIAALKLGAAKAIGIDIDPQAIQASRDNAERNGVSDRLELYLPKDQPEEMKADVVVANILAGPLRELAPLISVLPVSGGLLGLSGILASQAESVCEAYADSFALDPVVEKEEWCRITGRKN [P0A8T1]", "total protein half-life in vivo (h)": 4.89}

Which total protein half-life in vivo value belongs to MKKKRPVLQDVADRVGVTKMTVSRFLRNPEQVSVALRGKIAAALDELGYIPNRAPDILSNATSRAIGVLLPSLTNQVFAEVLRGIESVTDAHGYQTMLAHYGYKPEMEQERLESMLSWNIDGLILTERTHTPRTLKMIEVAGIPVVELMDSKSPCLDIAVGFDNFEAARQMTTAIIARGHRHIAYLGARLDERTIIKQKGYEQAMLDAGLVPYSVMVEQSSSYSSGIELIRQARREYPQLDGVFCTNDDLAVGAAFECQRLGLKVPDDMAIAGFHGHDIGQVMEPRLASVLTPRERMGSIGAERLLARIRGESVTPKMLDLGFTLSPGGSI [P0ACP5] ?
6.6

Which total protein half-life in vivo value belongs to MKKLTVAALAVTTLLSGSAFAHEAGEFFMRAGSATVRPTEGAGGTLGSLGGFSVTNNTQLGLTFTYMATDNIGVELLAATPFRHKIGTRATGDIATVHHLPPTLMAQWYFGDASSKFRPYVGAGINYTTFFDNGFNDHGKEAGLSDLSLKDSWGAAGQVGVDYLINRDWLVNMSVWYMDIDTTANYKLGGAQQHDSVRLDPWVFMFSAGYRF [P0A915] ?
7.52
